Endpoint: melting point

compound=CC(=O)NC(=N[N+](=O)[O-])NCc1ccc(Cl)nc1 endpoint="melting point" experimental_result="125 to 126 °C"
compound=CCOC(=O)CCCN1CCN(C2=Nc3ccccc3Oc3ccc(Cl)cc32)CC1 endpoint="melting point" experimental_result="86 to 87 °C"
compound=Cc1onc(NS(=O)(=O)c2cccc([N+](=O)[O-])c2)c1Br endpoint="melting point" experimental_result="137 to 139 °C"
compound=C=C(Cc1ccccc1)C(=O)NN1CCSCC1 endpoint="melting point" experimental_result="141 °C"

// query What measured melting point goes with CC(=O)OCc1cc(=O)c(Oc2ccc(F)cc2F)c(-c2ccc(S(C)(=O)=O)cc2)o1 ?
// result 175 °C

// query Also, COC(=O)CCCCCc1nn(-c2ccc([N+](=O)[O-])cc2)c2c1CCCC2 please.
// result 60 to 61 °C

// query Also CN1CCC(c2c[nH]c3ccc(-n4ccnc4)cc23)CC1 ?
// result 217 °C

// query Next up: CN1CCCCC1CCc1ccccc1NC(=O)c1ccc(C(F)(F)F)cc1 (stereo unspecified)
// result 150 °C

// query Similarly, COCCCN(C(=O)N(CCCl)N=O)C1(O)C(OCC(C)C)OCC(O)C1O (stereo unspecified) ?
// result 84 to 86 °C

// query Follow-up entry: CC12C=CC(O)CC1=CCC1C2CCC2(C)C1CCC21OCCO1 (stereo unspecified)
// result 138 to 140 °C

// query Likewise for CSc1nc(C)c(Cc2ccc(Cl)cc2)c(=O)[nH]1 ?
// result 248 to 251 °C
